assay: Inhibition of HIV1 reverse transcriptase 75I/77L/116Y/151M/184V mutant by heteropolymeric DNA polymerase assay; parameters: species or system Human immunodeficiency virus 1
# pIC50 per record follows
Scale for pIC50: -log10 of concentration given in mol/L; no unit attached.

INSERT INTO results (compound, obs_value) VALUES
  ('Cc1cn([C@H]2C[C@H](N=[N+]=[N-])[C@@H](COP(=O)(O)OP(=O)(O)OP(=O)(O)O)O2)c(=O)[nH]c1=O [ZIDOVUDINE TRIPHOSPHATE]', 4.97),
  ('C[C@H](Cn1cnc2c(N)ncnc21)OCP(=O)(O)OP(=O)(O)OP(=O)(O)O', 5.54),
  ('Nc1nc(=O)c2ncn([C@H]3C=C[C@@H](COP(=O)(O)OP(=O)(O)OP(=O)(O)O)C3)c2[nH]1 [CARBOVIR 5''-TRIPHOSPHATE, (-)-]', 4.27);

Form field: reported pIC50 of Nc1nc2c(ncn2[C@H]2CO[C@@H](COP(=O)(O)OP(=O)(O)OP(=O)(O)O)O2)c(=O)[nH]1 5.14

If you can, please state the reported pIC50 value of Cc1cn([C@H]2CO[C@@H](COP(=O)(O)OP(=O)(O)OP(=O)(O)O)O2)c(=O)[nH]c1=O . 5.15

###

assay: Inhibition of HIV1 reverse transcriptase 41L/69S-SG/210W/215Y mutant by heteropolymeric DNA polymerase assay; design: species or system Human immunodeficiency virus 1
OUTCOME MEASURE: IC50 (nM)
Output spec: scalar in nM, unitless text.

Example cases with answers are listed next.
INSERT INTO results (compound, result_unit, obs_value) VALUES
  ('Cc1cn([C@H]2CO[C@@H](COP(=O)(O)OP(=O)(O)OP(=O)(O)O)O2)c(=O)[nH]c1=O', 'nM', 110),
  ('Nc1nc(=O)c2ncn([C@H]3C=C[C@@H](COP(=O)(O)OP(=O)(O)OP(=O)(O)O)C3)c2[nH]1 [CARBOVIR 5''-TRIPHOSPHATE, (-)-]', 'nM', 900),
  ('Cc1cn([C@H]2C[C@H](N=[N+]=[N-])[C@@H](COP(=O)(O)OP(=O)(O)OP(=O)(O)O)O2)c(=O)[nH]c1=O [ZIDOVUDINE TRIPHOSPHATE]', 'nM', 160);

// next entry
Requested read-out: IC50. Entry: C[C@H](Cn1cnc2c(N)ncnc21)OCP(=O)(O)OP(=O)(O)OP(=O)(O)O 3700

###

assay: Inhibition of HIV1 reverse transcriptase wild type HXB2(a) in presence of 5 mM ATP by heteropolymeric DNA polymerase assay; parameters: species or system Human immunodeficiency virus 1
OUTCOME MEASURE: pIC50
Just so you know, pIC50 here is -log10 of the concentration in molar units; reply with that number alone.

INSERT INTO measurements (compound, outcome_measure, obs_value) VALUES
  ('Cc1cn([C@H]2C[C@H](N=[N+]=[N-])[C@@H](COP(=O)(O)OP(=O)(O)OP(=O)(O)O)O2)c(=O)[nH]c1=O [ZIDOVUDINE TRIPHOSPHATE]', 'pIC50', 6.34),
  ('C[C@H](Cn1cnc2c(N)ncnc21)OCP(=O)(O)OP(=O)(O)OP(=O)(O)O', 'pIC50', 5.48),
  ('Nc1nc(=O)c2ncn([C@H]3C=C[C@@H](COP(=O)(O)OP(=O)(O)OP(=O)(O)O)C3)c2[nH]1 [CARBOVIR 5''-TRIPHOSPHATE, (-)-]', 'pIC50', 5.82),
  ('Nc1nc2c(ncn2[C@H]2CO[C@@H](COP(=O)(O)OP(=O)(O)OP(=O)(O)O)O2)c(=O)[nH]1', 'pIC50', 6.82);

I am curious: what pIC50 value has been reported for Cc1cn([C@H]2CO[C@@H](COP(=O)(O)OP(=O)(O)OP(=O)(O)O)O2)c(=O)[nH]c1=O ? 6.42

###

Parameter: IC50. Scope: all listed entries.
assay: Inhibition of HIV1 reverse transcriptase 75I/77L/116Y/151M/184V mutant in presence of 5 mM ATP by heteropolymeric DNA polymerase assay; parameters: species or system Human immunodeficiency virus 1
# output: bare number, implied unit µM

Some compounds with recorded IC50:
INSERT INTO assay_data (compound, outcome_measure, result_unit, obs_value) VALUES
  ('Cc1cn([C@H]2CO[C@@H](COP(=O)(O)OP(=O)(O)OP(=O)(O)O)O2)c(=O)[nH]c1=O', 'IC50', 'µM', 15),
  ('Nc1nc(=O)c2ncn([C@H]3C=C[C@@H](COP(=O)(O)OP(=O)(O)OP(=O)(O)O)C3)c2[nH]1 [CARBOVIR 5''-TRIPHOSPHATE, (-)-]', 'IC50', 'µM', 18),
  ('Nc1nc2c(ncn2[C@H]2CO[C@@H](COP(=O)(O)OP(=O)(O)OP(=O)(O)O)O2)c(=O)[nH]1', 'IC50', 'µM', 2.4),
  ('Cc1cn([C@H]2C[C@H](N=[N+]=[N-])[C@@H](COP(=O)(O)OP(=O)(O)OP(=O)(O)O)O2)c(=O)[nH]c1=O [ZIDOVUDINE TRIPHOSPHATE]', 'IC50', 'µM', 22);

Now take the following compound into account.
Consider the compound shown here: C[C@H](Cn1cnc2c(N)ncnc21)OCP(=O)(O)OP(=O)(O)OP(=O)(O)O What is its recorded IC50? 4.6

###

target: Human immunodeficiency virus type 1 reverse transcriptase (Human immunodeficiency virus 1, UniProt Q72547); experiment: Inhibition of HIV1 pNL4-3 reverse transcriptase wild type pNL4-3 in presence of 5 mM ATP by heteropolymeric DNA polymerase assay
Quick reference for IC50 among some compounds
Provide only the numeric value, understood in nM.

Field: example entries. Status: answers known.
INSERT INTO measurements (compound, outcome_measure, obs_value) VALUES
  ('Cc1cn([C@H]2CO[C@@H](COP(=O)(O)OP(=O)(O)OP(=O)(O)O)O2)c(=O)[nH]c1=O', 'IC50', 300),
  ('Cc1cn([C@H]2C[C@H](N=[N+]=[N-])[C@@H](COP(=O)(O)OP(=O)(O)OP(=O)(O)O)O2)c(=O)[nH]c1=O [ZIDOVUDINE TRIPHOSPHATE]', 'IC50', 420),
  ('Nc1nc(=O)c2ncn([C@H]3C=C[C@@H](COP(=O)(O)OP(=O)(O)OP(=O)(O)O)C3)c2[nH]1 [CARBOVIR 5''-TRIPHOSPHATE, (-)-]', 'IC50', 1800);

Name the recorded IC50 for C[C@H](Cn1cnc2c(N)ncnc21)OCP(=O)(O)OP(=O)(O)OP(=O)(O)O . 4000

###

Documented pIC50 across a set of compounds
assay: Inhibition of HIV1 LAI reverse transcriptase 65R mutant in presence of 5 mM ATP by heteropolymeric DNA polymerase assay; design: species or system Human immunodeficiency virus 1
# reply with the number alone; pIC50 is -log10 of concentration in mol/L

Please look up its pIC50: Nc1nc2c(ncn2[C@H]2CO[C@@H](COP(=O)(O)OP(=O)(O)OP(=O)(O)O)O2)c(=O)[nH]1 5.89

Give the measured pIC50 of Cc1cn([C@H]2CO[C@@H](COP(=O)(O)OP(=O)(O)OP(=O)(O)O)O2)c(=O)[nH]c1=O . 6.12

Reported pIC50, compound Nc1nc(=O)c2ncn([C@H]3C=C[C@@H](COP(=O)(O)OP(=O)(O)OP(=O)(O)O)C3)c2[nH]1 [CARBOVIR 5'-TRIPHOSPHATE, (-)-] : ____ 5.26

Recorded pIC50 for C[C@H](Cn1cnc2c(N)ncnc21)OCP(=O)(O)OP(=O)(O)OP(=O)(O)O , please? 4.68

What does the data say about its pIC50? Entry: Cc1cn([C@H]2C[C@H](N=[N+]=[N-])[C@@H](COP(=O)(O)OP(=O)(O)OP(=O)(O)O)O2)c(=O)[nH]c1=O [ZIDOVUDINE TRIPHOSPHATE] 6.21

###

Recorded pIC50 by entry
assay: Inhibition of HIV1 reverse transcriptase wild type HXB2(a) in presence of 5'-A12-(GACT)5-3' by heteropolymeric DNA polymerase assay; design: species or system Human immunodeficiency virus 1
Reminder that pIC50 is minus the log10 of a molar concentration.

INSERT INTO assay_data (structure_notation, obs_value) VALUES
  ('C[C@H](Cn1cnc2c(N)ncnc21)OCP(=O)(O)OP(=O)(O)OP(=O)(O)O', 5.55);

--- query ---
# query: pIC50 of entry Cc1cn([C@H]2CO[C@@H](COP(=O)(O)OP(=O)(O)OP(=O)(O)O)O2)c(=O)[nH]c1=O 6.51

###

test: Inhibition of HIV1 HXB2 reverse transcriptase 41L/67N/70R/215Y/219Q mutant by heteropolymeric DNA polymerase assay
Parameter: IC50. Scope: all listed entries.
Give the number; nM is assumed, so skip it.

INSERT INTO results (compound, result_unit, obs_value) VALUES
  ('Cc1cn([C@H]2CO[C@@H](COP(=O)(O)OP(=O)(O)OP(=O)(O)O)O2)c(=O)[nH]c1=O', 'nM', 130);

Entry Cc1cn([C@H]2C[C@H](N=[N+]=[N-])[C@@H](COP(=O)(O)OP(=O)(O)OP(=O)(O)O)O2)c(=O)[nH]c1=O [ZIDOVUDINE TRIPHOSPHATE] has what IC50? 190
